From: ChEMBL document CHEMBL1921670

solubility values, listed per item
assay: Aqueous solubility of compound at pH 5.5; format: physicochemical; details: buffer

Answered cases to consult:
COc1cccc(CNC(=O)c2c[nH]c3cc(-c4cn[nH]c4)ccc23)c1 :: ≤ 0.01 µM
COc1cccc(CNC(=O)c2cc3ccc(-c4cn[nH]c4)cc3[nH]2)c1 :: ≤ 0.01 µM

(Q) Supply reported solubility belonging to this molecule: COc1cccc(CNC(=O)c2cn(CCN(C)C)c3cc(-c4cn[nH]c4)ccc23)c1
(A) ≥ 100 µM

====

experiment: Half life in rat at 1 mg/kg, iv or 2 mg/kg, po; assay type: ADME, organism-based; details: in vivo
compounds and their reported half-life
Return type: number; implicit unit h.

COc1cccc(CNC(=O)c2cn(CCN3CCCC3)c3nc(-c4cn[nH]c4)ccc23)c1 :: 1.5
COc1cccc(CNC(=O)c2cn(CCN(C)C)c3cc(-c4cn[nH]c4)ccc23)c1 :: 1.2
COc1cccc(CNC(=O)c2cc3ccc(-c4cn[nH]c4)nc3n2C)c1 :: 1.8
COc1cccc(CN(C(=O)c2cc3ccc(-c4cn[nH]c4)nc3[nH]2)C2CC2)c1 :: 0.9

We now examine a further compound.
(Q) Tell me half-life reported for COc1cccc(CNC(=O)c2[nH]c3cc(-c4cn[nH]c4)ccc3c2CN2CCOCC2)c1
(A) 1.4
